- Species: Homo sapiens
- run-description: Selectivity for human tryptase compared to human plasmin.
Use T when the recorded Selectivity ratio is no lower than 100; use F when it is lower.

- given-smiles: "CC(C)(C)C(=O)N1CCN(C(=O)N2C(=O)[C@H](CCCN=C(N)N)[C@H]2C(=O)O)CC1"
  answer-label: "T"
- given-smiles: "N=C(N)NCCC[C@H]1C(=O)N(C(=O)c2cccs2)[C@@H]1C(=O)O"
  answer-label: "F"
- given-smiles: "CCN(CC)C(=O)N1CCN(C(=O)N2C(=O)[C@H](CCCN=C(N)N)[C@H]2C(=O)O)CC1"
  answer-label: "T"

INPUT: Could you verify whether the entry N=C(N)NCCC[C@H]1C(=O)N(C(=O)c2ccc(-c3ccccc3)cc2)[C@@H]1C(=O)O shows Selectivity ratio of no less than 100?
OUTPUT: F

INPUT: // repeat for CC(C)(C)CC(=O)N1CCN(C(=O)N2C(=O)[C@H](CCCN=C(N)N)[C@H]2C(=O)O)CC1 and report
OUTPUT: T

INPUT: Another compound to check: N=C(N)NCCC[C@H]1C(=O)N(C(=O)N2CCN(S(=O)(=O)c3ccccc3)CC2)[C@@H]1C(=O)O
OUTPUT: T

INPUT: How about N=C(N)NCCC[C@H]1C(=O)N(C(=O)N2CCN(C(=O)c3ccccc3)CC2)[C@@H]1C(=O)O ?
OUTPUT: T

----------
Give Selectivity ratio for every item shown.
- Species on record: Homo sapiens
- run-description: Selectivity for human tryptase compared to human trypsin.
Answers are plain numbers.

- compound: "COC(=O)N1CCN(C(=O)N2C(=O)[C@H](CCCN=C(N)N)[C@H]2C(=O)O)CC1"
  Selectivity ratio: 2
- compound: "N=C(N)NCCC[C@H]1C(=O)N(C(=O)c2cccs2)[C@@H]1C(=O)O"
  Selectivity ratio: 3
- compound: "N=C(N)NCCC[C@H]1C(=O)N(C(=O)Nc2ccccc2)[C@@H]1C(=O)O (stereo in doubt; 8a)"
  Selectivity ratio: 1
- compound: "CC(C)(C)OC(=O)N1CCN(C(=O)N2C(=O)[C@H](CCCN=C(N)N)[C@H]2C(N)=O)CC1 (single isomer, unassigned)"
  Selectivity ratio: 6
- compound: "N=C(N)NCCC[C@H]1C(=O)N(C(=O)Nc2ccccc2)[C@@H]1C(=O)O (stereo in doubt)"
  Selectivity ratio: 0.3

Provide the reported Selectivity ratio of each entry below, same order.
1. CC(C)(C)OC(=O)N1CCN(C(=O)N2C(=O)[C@H](CCCN=C(N)N)[C@H]2C(=O)O)CC1
2. CNC(=O)[C@@H]1[C@@H](CCCN=C(N)N)C(=O)N1C(=O)N1CCN(C(=O)OC(C)(C)C)CC1

OUTPUT:
[8, 3]

----------
- run-description: Aqueous Stability (half-life period) at pH 7 and 37 degrees
- Assay type: ADME
- measurement-setup: aqueous solution
readout-kind: half-life

- molecule: "CC(C)(C)CC(=O)N1CCN(C(=O)N2C(=O)[C@H](CCCN=C(N)N)[C@H]2C(=O)O)CC1"
  readout-kind: "half-life"
  result: "> 48 h"

Okay, here is my list. What is half-life for each of these?
1. N=C(N)NCCC[C@H]1C(=O)N(C(=O)NCc2ccccc2)[C@@H]1C(=O)O
2. CC(C)(C)OC(=O)N1CCN(C(=O)N2C(=O)[C@H](CCCN=C(N)N)[C@H]2C(=O)N2CCCCC2)CC1

OUTPUT:
["> 48 h", "> 48 h"]

----------
- tested-on: Tryptase (Homo sapiens, UniProt Q9BZJ3+Q15661+Q9NRR2)
- run-description: In vitro inhibition of human tryptase.
Would you mind telling me the reported IC50 of each entry?
Give bare numbers, in nM.

- molecule: "N=C(N)NCCC[C@H]1C(=O)N(S(=O)(=O)c2ccc(-c3ccccc3)cc2)[C@@H]1C(=O)O"
  IC50 [nM]: 1

Quick batch: IC50 for everything below.
1. CCN(CC)C(=O)N1CCN(C(=O)N2C(=O)[C@H](CCCN=C(N)N)[C@H]2C(=O)O)CC1
2. N=C(N)NCCC[C@H]1C(=O)N(C(=O)NCc2ccccc2)[C@@H]1C(=O)O

OUTPUT:
1. 5
2. 71

Please go through the list and note IC50 for each molecule.
1. COC(=O)N1CCN(C(=O)N2C(=O)[C@H](CCCN=C(N)N)[C@H]2C(=O)O)CC1
2. N=C(N)NCCC[C@H]1C(=O)N(C(=O)c2cccs2)[C@@H]1C(=O)O
3. CC(C)(C)NC(=O)N1CCN(C(=O)N2C(=O)[C@H](CCCN=C(N)N)[C@H]2C(=O)O)CC1
4. N=C(N)NCCC[C@H]1C(=O)N(C(=O)Nc2ccccc2)[C@@H]1C(=O)O (stereo in doubt; 8a)

OUTPUT:
9
1
4
6

----------
- Organism: Homo sapiens
- run-description: Selectivity for human tryptase compared to human plasmin.
# note: exactly 200 is not below, so it is n; use y for Selectivity ratio strictly under it

- compound: "CC(C)(C)OC(=O)N1CCN(C(=O)N2C(=O)[C@H](CCCN=C(N)N)[C@H]2C(=O)O)CC1"
  answer-label: "n"

INPUT: Hi there! Is Selectivity ratio for N=C(N)NCCC[C@H]1C(=O)N(S(=O)(=O)c2ccc(-c3ccccc3)cc2)[C@@H]1C(=O)O below 200, do you know?
OUTPUT: y

INPUT: Follow-up item: CC(C)(C)NC(=O)N1CCN(C(=O)N2C(=O)[C@H](CCCN=C(N)N)[C@H]2C(=O)O)CC1
OUTPUT: n

INPUT: Try this compound next: CC(C)(C)OC(=O)N1CCN(C(=O)N2C(=O)[C@H](CCCN=C(N)N)[C@H]2C(N)=O)CC1 (single isomer, unassigned)
OUTPUT: n

----------
- Species: Homo sapiens
- run-description: Selectivity for human tryptase compared to human tissue plasminogen activator tissue.
Provide the reported Selectivity ratio of each item.

// known answers, use as guide
- given-smiles: "CCN(CC)C(=O)N1CCN(C(=O)N2C(=O)[C@H](CCCN=C(N)N)[C@H]2C(=O)O)CC1"
  Selectivity ratio: "> 6600"
- given-smiles: "CC(C)(C)NC(=O)N1CCN(C(=O)N2C(=O)[C@H](CCCN=C(N)N)[C@H]2C(=O)O)CC1"
  Selectivity ratio: "> 8250"

API: the following record is the query input.
INPUT: Which Selectivity ratio value is on record for N=C(N)NCCC[C@H]1C(=O)N(C(=O)N2CCN(S(=O)(=O)c3ccccc3)CC2)[C@@H]1C(=O)O ?
OUTPUT: > 2500

----------
- Species: Homo sapiens
- run-description: Selectivity for human tryptase compared to human urokinase plasminogen activator.
readout-kind: Selectivity ratio

- given-smiles: "CC(C)(C)NC(=O)N1CCN(C(=O)N2C(=O)[C@H](CCCN=C(N)N)[C@H]2C(=O)O)CC1"
  Selectivity ratio: 135

Record Selectivity ratio for all entries; do not skip any.
1. N=C(N)NCCC[C@H]1C(=O)N(S(=O)(=O)c2ccc(-c3ccccc3)cc2)[C@@H]1C(=O)O
2. CC(C)(C)OC(=O)N1CCN(C(=O)N2C(=O)[C@H](CCCN=C(N)N)[C@H]2C(=O)N2CCCCC2)CC1
3. N=C(N)NCCC[C@H]1C(=O)N(C(=O)c2cccs2)[C@@H]1C(=O)O
4. CNC(=O)[C@@H]1[C@@H](CCCN=C(N)N)C(=O)N1C(=O)N1CCN(C(=O)OC(C)(C)C)CC1
5. CC(C)(C)OC(=O)N1CCN(C(=O)N2C(=O)[C@H](CCCN=C(N)N)[C@H]2C(=O)O)CC1

OUTPUT:
1: 44; 2: 246; 3: 5; 4: 75; 5: 218

Each of the following entries comes with a recorded value; kindly state Selectivity ratio for each.
1. N=C(N)NCCC[C@H]1C(=O)N(C(=O)N2CCN(C(=O)c3ccccc3)CC2)[C@@H]1C(=O)O
2. N=C(N)NCCC[C@H]1C(=O)N(C(=O)NCc2ccccc2)[C@@H]1C(=O)O
3. N=C(N)NCCC[C@H]1C(=O)N(C(=O)N2CCN(C(=O)OCCc3ccccc3)CC2)[C@@H]1C(=O)O
4. N=C(N)NCCC[C@H]1C(=O)N(C(=O)N2CCN(S(=O)(=O)c3ccccc3)CC2)[C@@H]1C(=O)O

OUTPUT:
142
16
926
43

----------
- run-description: Aqueous Stability (half-life period) at pH 9 and 37 degrees
- Type: ADME
- measurement-setup: aqueous solution
readout-kind: half-life

Take a look at these entries with their results.
- given-smiles: "N=C(N)NCCC[C@H]1C(=O)N(C(=O)c2ccc(-c3ccccc3)cc2)[C@@H]1C(=O)O"
  readout-kind: "half-life"
  result: "< 6 min"
- given-smiles: "N=C(N)NCCC[C@H]1C(=O)N(C(=O)c2cccs2)[C@@H]1C(=O)O"
  readout-kind: "half-life"
  result: "< 6 min"

Then there is this molecule:
INPUT: What does the data say about its half-life? Entry: N=C(N)NCCC[C@H]1C(=O)N(S(=O)(=O)c2ccc(-c3ccccc3)cc2)[C@@H]1C(=O)O
OUTPUT: < 6 min
